Aspergillus niger (An) data, read-out MIC

Reference set, count: 4
{"columns": ["Compound", "MIC"],
 "data": [
  ["O=c1c2sc3nsnc3sc=2c(=O)n1CCc1ccccc1", "100 µg/mL"],
  ["O=c1[nH]c(=O)c2sc3nsnc3sc1=2", "< 1 µg/mL"],
  ["Cn1c(=O)c2sc3nsnc3sc=2c1=O", "< 1 µg/mL"],
  ["CCCn1c(=O)c2sc3nsnc3sc=2c1=O", "< 1 µg/mL"]
]}

Shifting focus to the compound that follows.
What MIC value was documented for this compound, O=c1c2sc3nsnc3sc=2c(=O)n1-c1ccccc1 ?
< 10 µg/mL
